Entry source: paper PMC10461969

- TARGET_OR_TEST_SYSTEM: SIRT5 (Homo sapiens, UniProt Q9NXA8)
- Sequence (Q9NXA8 37-310): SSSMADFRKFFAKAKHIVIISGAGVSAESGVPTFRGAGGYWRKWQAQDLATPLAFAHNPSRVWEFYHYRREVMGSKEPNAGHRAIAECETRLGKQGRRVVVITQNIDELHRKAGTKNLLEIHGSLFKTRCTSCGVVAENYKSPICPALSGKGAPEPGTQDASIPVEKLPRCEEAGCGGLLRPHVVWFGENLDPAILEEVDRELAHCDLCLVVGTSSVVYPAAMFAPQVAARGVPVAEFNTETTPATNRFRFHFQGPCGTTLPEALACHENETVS
- PROCEDURE_DETAILS: SIRTify cell-free inhibitor assay, SIRT5
- REPORTED_CONDITIONS: Succinyl substrate (desuccinylase activity), 250 μM NAD+
OBSERVABLE: IC50

In plain terms, `O=C(O)CCNC(=S)NCCCC[C@H](NS(=O)(=O)c1cccc(F)c1)C(=O)N[C@@H](Cc1c[nH]c2ccccc12)C(=O)NC1CCC1` has a documented IC50 of 102 nM
